Data origin, for the record: paper PMC8306477

experiment: PAMPA-BBB permeability of terpenes of SS adsorbate; type: in vitro ADME; conditions: terpene within Sea Sand Adsorbate, 4 h, 37 °C, buffer pH 7.4, GC-qTOF-MS, read-out: PAMPA-BBB Log Pe (RSD %) (converted)
quantity kind: Papp at 4 h

compound string	result
C[C@H]1[C@H](C)CC[C@]2(CO)CC[C@]3(C)C(=CC[C@@H]4[C@@]5(C)CC[C@H](O)C(C)(C)[C@@H]5CC[C@]43C)[C@H]12	1.51 ×10⁻⁶ cm/s
CC1(C)CC[C@]2(CO)CC[C@]3(C)C(=CC[C@@H]4[C@@]5(C)CC[C@H](O)C(C)(C)[C@@H]5CC[C@]43C)[C@@H]2C1	0.575 ×10⁻⁶ cm/s
Cc1c(C)c2c(c(C)c1O)CC[C@@](C)(CCC[C@H](C)CCC[C@H](C)CCCC(C)C)O2	1.15 ×10⁻⁶ cm/s
CC[C@H](CC[C@@H](C)[C@H]1CC[C@H]2[C@@H]3CC=C4C[C@@H](O)CC[C@]4(C)[C@H]3CC[C@]12C)C(C)C	0.912 ×10⁻⁶ cm/s
Cc1c(O)cc2c(c1C)O[C@](C)(CCC[C@H](C)CCC[C@H](C)CCCC(C)C)CC2	8.91 ×10⁻⁶ cm/s
CC(C)=CCC/C(C)=C/CC/C(C)=C/CC/C=C(\C)CC/C=C(\C)CCC=C(C)C	13.2 ×10⁻⁶ cm/s
